IC50 listing for selected compounds.
system.under.test: KRas G12V (Homo sapiens, UniProt P01116, G12V)
Sequence (P01116 1-169 isoform P01116-2 G12V): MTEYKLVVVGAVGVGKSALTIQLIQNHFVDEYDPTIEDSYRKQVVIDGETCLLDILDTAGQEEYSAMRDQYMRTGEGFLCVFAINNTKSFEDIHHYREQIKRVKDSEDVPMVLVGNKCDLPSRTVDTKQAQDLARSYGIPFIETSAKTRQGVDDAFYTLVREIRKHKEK
assay.remarks: biochemical
All answers are understood in nM, so give the number only.

Recorded IC50, per entry:
1) CCc1c(F)ccc2cc(O)cc(-c3ncc4c(NCCC5NC(=O)NC5=O)nc(OC[C@@]56CCCN5C[C@H](F)C6)nc4c3F)c12 (stereo partly shown): 3
2) OC12CC(Nc3nc(OCC45CCCN4CCC5)nc4c(F)c(-c5cccc6cccc(F)c56)ncc34)(C1)C2: 3470
3) Fc1c(-c2cccc3cccc(F)c23)ncc2c(NCCCc3cccnc3)nc(OCC34CCCN3CCC4)nc12: 1510

// query IC50 value for entry O=C1NCC2(CCCN(c3nc(OCC45CCCN4CCC5)nc4c(F)c(-c5cccc6cccc(Cl)c56)ncc34)C2)N1 (stereo not shown)
41

* * *

Recorded pIC50 for the following compounds
System: pERK in PSN1 cells
assay.remarks: Inhibition of KRas phosphorylation of ERK (Cisbio HTRF pERK assay)
condition.parameters: Homo sapiens, PSN1, 3 h, read-out: Inhibition (HTRF IC50) of KRas-mediated Phosphorylation of ERK, PSN1
Please report pIC50 as the negative decimal logarithm of the molar concentration, giving only the number.

1. CCc1c(F)ccc2cc(O)cc(-c3ncc4c(N5CCCCCC5)nc(OC[C@@]56CCCN5C[C@H](F)C6)nc4c3F)c12: 5.41
2. CN(C)C(=O)c1cc2n(n1)CCCN(c1nc(OC[C@@]34CCCN3C[C@H](F)C4)nc3c(F)c(-c4cc(O)cc5ccc(F)c(Br)c45)ncc13)C2: 5.22
3. CN(C)CC1(COc2nc(N3CCCC4(CNS(=O)(=O)N4)C3)c3cnc(-c4cc(O)cc5ccc(F)c(Cl)c45)c(F)c3n2)CC1 (stereo not shown): 5.48
4. CCc1c(F)ccc2cc(O)cc(-c3ncc4c(N5CCC[C@@](C)(O)C5)nc(OCC5(CN6CCCC6)CC5)nc4c3F)c12: 5.60
5. NS(=O)(=O)CC1CCCN(c2nc(OC[C@@]34CCCN3C[C@H](F)C4)nc3c(F)c(-c4cc(O)cc5ccc(F)c(Cl)c45)ncc23)C1 (stereo partly shown): 5.46

State the recorded pIC50 for this entry: CCc1c(F)ccc2cc(O)cc(-c3ncc4c(N5CCCC6(C5)CS(=O)(=O)C6)nc(OC[C@@]56CCCN5C[C@H](F)C6)nc4c3F)c12
5.27

Would you kindly share the measured pIC50 for C#Cc1c(F)ccc2cc(O)cc(-c3ncc4c(N5CCC[C@@](C)(O)C5)nc(OC[C@@]56CCCN5C[C@H](F)C6)nc4c3F)c12 ?
5.96

Look up pIC50 for this compound: CCc1c(F)ccc2cc(O)cc(-c3ncc4c(N5C[C@@H]6C[C@H](C5)[C@H](O)C6)nc(OCC5(CN6CCCC6)CC5)nc4c3F)c12
5.29

Please give the measured pIC50 for this compound: CCc1c(F)ccc2cc(O)cc(-c3ncc4c(N5CCCc6nn(C(=O)N(C)C)cc6C5)nc(OC[C@@]56CCCN5C[C@H](F)C6)nc4c3F)c12
5.32

Return reported pIC50; argument: CCc1c(F)ccc2cc(O)cc(-c3ncc4c(N5CCC[C@]6(CC(=O)N6)C5)nc(OC[C@@]56CCCN5C[C@H](F)C6)nc4c3F)c12 (single isomer, unassigned)
5.87

* * *

system.under.test: KRas Q61H (Homo sapiens, UniProt P01116, Q61H)
Construct: Biotinylated KRas (corresponding to amino acids 1-169, produced at Accelegan Inc.); biotin (biotinylated); purchased Accelegan Inc
Sequence (P01116 1-169 isoform P01116-2 Q61H): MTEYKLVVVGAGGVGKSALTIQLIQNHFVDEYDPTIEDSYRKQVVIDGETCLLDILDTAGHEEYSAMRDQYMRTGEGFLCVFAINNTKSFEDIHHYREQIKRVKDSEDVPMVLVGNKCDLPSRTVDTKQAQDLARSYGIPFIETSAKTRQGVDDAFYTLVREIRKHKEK
assay.remarks: KRas binding assay (TR-FRET displacement)
Quick list: IC50 per entry.
Numbers only here, please. The scale is nM.

1. C#Cc1c(F)ccc2cccc(-c3ncc4c(N5CCC[C@@](C)(O)C5)nc(OCC56CCCN5CCC6)nc4c3F)c12 [Example 14]: 80
2. OC12CC(Nc3nc(OCC45CCCN4CCC5)nc4c(F)c(-c5cccc6cccc(F)c56)ncc34)(C1)C2 [Example 90]: 19600
3. OCc1cc2n(n1)CCCN(c1nc(OCC34CCCN3CCC4)nc3c(F)c(-c4cccc5cccc(F)c45)ncc13)C2 [Example 261]: 10700
4. Fc1c(-c2cccc3cccc(F)c23)ncc2c(OCCCc3cccnc3)nc(OCC34CCCN3CCC4)nc12 [Example 207]: 46400

Reported IC50 for CCc1c(F)ccc2cc(O)cc(-c3ncc4c(N5CCC[C@@](C)(O)C5)nc(OC[C@@H]5CCCN5C)nc4c3F)c12 [Example 28] : what is it?
3

Query: IC50; subject: Fc1c(-c2cccc3cccc(F)c23)ncc2c(NCc3c[nH]c4ncccc34)nc(OCC34CCCN3CCC4)nc12 [Example 94]
1850

I'd like to know its IC50. The compound in question is Cn1ncc2ccc(Nc3nc(OCC45CCCN4CCC5)nc4c(F)c(-c5cccc6cccc(F)c56)ncc34)cc21 [Example 99]
98500

* * *

system.under.test: KRas G13D (Homo sapiens, UniProt P01116, G13D)
Construct: Biotinylated KRas (corresponding to amino acids 1-169, produced at Accelegan Inc.); biotin (biotinylated); purchased Accelegan Inc
Sequence (P01116 1-169 isoform P01116-2 G13D): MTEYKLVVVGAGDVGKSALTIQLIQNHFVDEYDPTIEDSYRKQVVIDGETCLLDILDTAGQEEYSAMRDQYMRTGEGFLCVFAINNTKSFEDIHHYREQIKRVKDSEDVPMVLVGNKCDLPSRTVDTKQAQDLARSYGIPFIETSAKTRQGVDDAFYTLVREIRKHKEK
assay.remarks: KRas binding assay (TR-FRET displacement)
# label = criterion met if IC50 < 4000 nM else criterion not met

1) Fc1c(-c2cccc3cccc(F)c23)ncc2c(Nc3cnn(-c4ccncc4)c3)nc(OCC34CCCN3CCC4)nc12 [Example 210]: criterion not met
2) Cn1ncc2ccc(Nc3nc(OCC45CCCN4CCC5)nc4c(F)c(-c5cccc6cccc(F)c56)ncc34)cc21 [Example 99]: criterion not met
3) O=C1NCC(CNc2nc(OCC34CCCN3CCC4)nc3c(F)c(-c4cccc5cccc(F)c45)ncc23)O1 (stereo not shown) [Example 110]: criterion not met
4) NS(=O)(=O)CC1CCCN(c2nc(OCC34CCCN3CCC4)nc3c(F)c(-c4cccc5cccc(F)c45)ncc23)C1 (stereo not shown) [Example 221]: criterion met
5) CN(Cc1c[nH]c2ncccc12)c1nc(OCC23CCCN2CCC3)nc2c(F)c(-c3cccc4cccc(F)c34)ncc12 [Example 223]: criterion not met
6) OCC1CCCN(c2nc(OCC34CCCN3CCC4)nc3c(F)c(-c4cccc5cccc(F)c45)ncc23)C1 (stereo not shown) [Example 113]: criterion not met
7) C[C@H]1C[C@H]1c1c(Cl)cc2[nH]ncc2c1-c1ncc2c(N3CCC[C@@](C)(O)C3)nc(OC[C@@]34CCCN3C[C@H](F)C4)nc2c1F (racemic) [Example 153]: criterion met
8) Fc1c(-c2cccc3cccc(F)c23)ncc2c(OCCCc3cccnc3)nc(OCC34CCCN3CCC4)nc12 [Example 207]: criterion not met

Please state whether IC50 is below 4000 nM for N#Cc1ccccc1N1CCN(c2nc(OCC34CCCN3CCC4)nc3c(F)c(-c4cccc5cccc(F)c45)ncc23)CC1 [Example 216]
criterion not met

Record C#Cc1c(F)ccc2cc(O)cc(-c3ncc4c(N5CCC[C@@](C)(O)C5)nc(OC[C@@]56CCCN5C[C@H](F)C6)nc4c3F)c12 [Example 13] : is its IC50 strictly below 4000 nM?
criterion met

* * *

system.under.test: KRas G12V (Homo sapiens, UniProt P01116, G12V);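 further: KRas binding measured by TR-FRET displacement at room temperature, IC50 fitted from percent of control values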
assay.remarks: biochemical
pIC50: −log10 of the molar value.
Each entry gets criterion not met if its pIC50 stays under 6, and criterion met if its pIC50 is 6 or above.

1. CCc1c(F)ccc2cc(O)cc(-c3ncc4c(N5CCCn6nc(C(=O)N(C)C)cc6C5)nc(OCC5(CN(C)C)CC5)nc4c3F)c12 [Example 333]: criterion met
2. CCc1c(F)ccc2cc(O)cc(-c3ncc4c(N5C[C@@H](CO)C[C@](C)(O)C5)nc(OC[C@@]56CCCN5C[C@H](F)C6)nc4c3F)c12 (mixture of isomers) [Example 327]: criterion met
3. CCc1c(F)ccc2cc(O)cc(-c3ncc4c(N5CCCn6nc(C(=O)N7CCN(C)CC7)cc6C5)nc(OC[C@@]56CCCN5C[C@H](F)C6)nc4c3F)c12 [Example 477]: criterion met
4. CCc1c(F)ccc2cc(O)cc(-c3ncc4c(N5CCN(c6ncccc6C#N)CC5)nc(OC[C@@]56CCCN5C[C@H](F)C6)nc4c3F)c12 [Example 155]: criterion met

Hi team, for O=C1CC2(CCCN(c3nc(OC[C@@]45CCCN4C[C@H](F)C5)nc4c(F)c(-c5cc(O)cc6ccc(F)c(F)c56)ncc34)C2)CN1 (stereo partly shown) [Example 446] , is the recorded pIC50 at or above 6?
criterion met

Item C#Cc1c(F)ccc2cccc(-c3ncc4c(N5CCC[C@@](C)(O)C5)nc(OCC56CCCN5CCC6)nc4c3F)c12 [Example 14] with pIC50 of 6 or above?
criterion met

Test whether the compound Fc1c(-c2cccc3cccc(Cl)c23)ncc2c(N3CCCC3c3cn[nH]c3)nc(OCC34CCCN3CCC4)nc12 (stereo not shown) [Example 104] records pIC50 of 6 or higher.
criterion not met

Kindly determine if pIC50 recorded for CCc1c(F)ccc2cc(O)cc(-c3ncc4c(NCc5cccnc5N)nc(OC[C@@]56CCCN5C[C@H](F)C6)nc4c3F)c12 [Example 136] is above or exactly 6.
criterion met

Can O=C1CC2(CCCN(c3nc(OCC45CCCN4CCC5)nc4c(F)c(-c5cccc6cccc(CCF)c56)ncc34)C2)N1 (stereo not shown) [Example 470] be said to have pIC50 at or above 6?
criterion met

Entry Cc1cccc2cccc(-c3ncc4c(N5CCCC(CS(N)(=O)=O)C5)nc(OCC56CCCN5CCC6)nc4c3F)c12 (stereo not shown) [Example 438] : is its pIC50 no less than 6?
criterion met

For this compound, is measured pIC50 6 or higher? C#Cc1c(F)ccc2cc(O)cc(-c3ncc4c(N5CCOC[C@@](C)(O)C5)nc(OC[C@@]56CCCN5C[C@H](F)C6)nc4c3F)c12 [Example 201]
criterion met

Evaluate Cc1cc2[nH]ncc2c(-c2ncc3c(N4CCCC(C)(O)C4)nc(OC[C@@]45CCCN4C[C@H](F)C5)nc3c2F)c1C (stereo partly shown) [Example 471] : pIC50 at minimum 6?
criterion met

# bool: pIC50 of CCc1c(F)ccc2cc(O)cc(-c3ncc4c(N5C[C@@H](C)C[C@@H](O)C5)nc(OC[C@@]56CCCN5C[C@H](F)C6)nc4c3F)c12 [Example 180] >= 6
criterion met

Tell me whether pIC50 is at least 6 here: Fc1c(-c2cccc3cccc(F)c23)ncc2c(N3CCCC(c4cc[nH]n4)C3)nc(OCC34CCCN3CCC4)nc12 (stereo not shown) [Example 131]
criterion not met

Would you say CCc1c(F)ccc2cc(O)cc(-c3ncc4c(NCCN5CC(=O)NC5=O)nc(OC[C@@]56CCCN5C[C@H](F)C6)nc4c3F)c12 [Example 378] shows pIC50 at minimum 6?
criterion met
